System: CCRF-CEM
assayInfo: Antiproliferative activity against human CCRF-CEM cells assessed as cell viability at 50 uM after 72 hrs by MTS assay (reference value: 100 +/- 5.54%)
Type: functional
recordedConditions: read-out: Activity
propertyMeasured: viability at 50 µM (%)
# value in %; strip the unit string

Sample records with viability at 50 µM:
The recorded viability at 50 µM for entry CCOC(=O)c1ccc2[nH]c(-c3ccc(C(C)(C)C)cc3)nc2c1 equals 82.2

The recorded viability at 50 µM for entry CCOC(=O)c1ccc2[nH]c(-c3ccc(OC)cc3)nc2c1 equals 87.4

The recorded viability at 50 µM for entry CCOC(=O)c1ccc2[nH]c(-c3ccc(N4CCOCC4)cc3)nc2c1 equals 37.8

***
The recorded viability at 50 µM for entry CCOC(=O)c1ccc2[nH]c(-c3ccc(N(C)C)cc3)nc2c1 equals 49.5

The recorded viability at 50 µM for entry CCOC(=O)c1ccc2[nH]c(-c3ccccc3)nc2c1 equals 58.3

The recorded viability at 50 µM for entry CCOC(=O)c1ccc2[nH]c(-c3ccc(O)cc3)nc2c1 equals 85.5

The recorded viability at 50 µM for entry CCOC(=O)c1ccc2[nH]c(-c3ccc(C)cc3)nc2c1 equals 61.2

The recorded viability at 50 µM for entry CCOC(=O)c1ccc2[nH]c(-c3ccc(N4CCCCC4)cc3)nc2c1 equals 36.3
